Listed molecules paired with reported melting point

Q: Which melting point is listed for `C1=C(c2ccccc2)CCN(c2cc(N3CCOCC3)nc(N3CCOCC3)n2)C1` ?
Ans: 165 to 168 °C

Q: Which melting point is listed for `c1ccc(Cc2c(N3CCOCC3)nc(N3CCN(c4ccccc4)CC3)nc2N2CCOCC2)cc1` ?
Ans: 141 to 144 °C

Q: Which melting point is listed for `COc1ccc(/C=C/c2nc(N(C)C)c(N)c(N3CCOCC3)n2)cc1` ?
Ans: 130 to 133 °C

---

Listed molecules paired with reported EC50
# System: astrocyte/neuron co-culture
# run_description: Brain cell damage induced by hydrogen peroxide treatment (LDH assay)
# Type: cell-based
# condition_context: Rattus norvegicus, hydrogen peroxide (250 μM), 24 hours, read-out: 50% inhibition concentration against cell damage in entire co-culture system (EC50 value)
Give the number; nM is assumed, so skip it.

Record excerpt, results attached:
{"columns": ["molecule", "test_result"],
 "data": [
  ["CCOC(=O)C1CSCCN1c1nc(/C=C/c2ccc(OC)cc2)nc(N2CCOCC2)c1N (stereo not shown) [Compound 209]", 1480],
  ["Nc1c(N2CCOCC2)nc(N2CCN(c3ccccc3)CC2)nc1N1CCOCC1 [Compound 63]", 8300]
]}

Q: Which EC50 is listed for Nc1c(N2CCOCC2)nc(N2CCOCC2)nc1N1CCC(Cc2ccccc2)CC1 [Compound 67] ?
Ans: 1780

Q: Which EC50 is listed for N#CC1(c2ccccc2)CCN(c2nc(N3CCOCC3)nc(N3CCOCC3)c2F)CC1 [Compound 115] ?
Ans: 630

Q: Which EC50 is listed for COc1ccc(/C=C/c2nc(NCCN)c(N)c(N3CCOCC3)n2)cc1 [Compound 174] ?
Ans: 3110

Q: Which EC50 is listed for COc1ccc(/C=C/c2nc(N3CCOCC3)c(N)c(N(C)C3CCN(C)CC3)n2)cc1 [Compound 198] ?
Ans: 3740

Q: Which EC50 is listed for c1ccc2c(c1)CCN(c1nc(N3CCOCC3)cc(N3CCOCC3)n1)C2 [Compound 6] ?
Ans: 8240

Q: Which EC50 is listed for Nc1ccc(N2CCN(c3nc(N4CCOCC4)nc(N4CCOCC4)c3F)CC2)cc1 [Compound 146] ?
Ans: 960

Q: Which EC50 is listed for CN1CCN(c2nc(N3CCN(c4ccccc4Cl)CC3)nc(N3CCOCC3)c2F)CC1 [Compound 187] ?
Ans: 330

Q: Which EC50 is listed for COc1ccc(/C=C/c2nc(N3CCNCC3)c(N)c(N3CCOCC3)n2)cc1 [Compound 170] ?
Ans: 990

Q: Which EC50 is listed for COc1ccc(/C=C/c2nc(N3CCOCC3)c(N)c(N3CCN(CCN(C)C)CC3)n2)cc1 [Compound 175] ?
Ans: 3240

Q: Which EC50 is listed for Fc1c(N2CCOCC2)nc(N2CCN(C3CCCCC3)CC2)nc1N1CCOCC1 [Compound 123] ?
Ans: 2980

Q: Which EC50 is listed for Oc1ccc(N2CCN(c3nc(N4CCOCC4)cc(N4CCOCC4)n3)CC2)cc1 [Compound 30] ?
Ans: 3010

Q: Which EC50 is listed for CC1CCc2cc(F)ccc2N1c1nc(N2CCOCC2)c(N)c(N2CCOCC2)n1 (stereo not shown) [Compound 71] ?
Ans: 1960

Q: Which EC50 is listed for CN(C)c1nc(N2CCOCC2)c(F)c(N2CCN(c3ccccn3)CC2)n1 [Compound 91] ?
Ans: 880

Q: Which EC50 is listed for Fc1c(N2CCOCC2)nc(N2Cc3ccccc3C2)nc1N1CCOCC1 [Compound 89] ?
Ans: 530

Q: Which EC50 is listed for Cc1ccc(N2CCN(c3nc(N4CCN(C)CC4)nc(N4CCOCC4)c3F)CC2)cc1 [Compound 151] ?
Ans: 980

Q: Which EC50 is listed for COc1ccc(/C=C/c2nc(NCC(=O)OC(C)(C)C)c(N)c(N3CCOCC3)n2)cc1 [Compound 197] ?
Ans: 550

Q: Which EC50 is listed for Cn1c(/C=C/c2nc(N3CCOCC3)c(N)c(N3CCOCC3)n2)cc2sccc21 [Compound 133] ?
Ans: 2030
